- Target System: G2019S LRRK2 (Homo sapiens, UniProt Q5S007, G2019S)
- Construct: expressed in transfected cells; host or cells: HEK293 (ATCC CRL-1573), transient transfection, mammalian expression vector with ubiquitin promoter
- Sequence (Q5S007 whole entry G2019S): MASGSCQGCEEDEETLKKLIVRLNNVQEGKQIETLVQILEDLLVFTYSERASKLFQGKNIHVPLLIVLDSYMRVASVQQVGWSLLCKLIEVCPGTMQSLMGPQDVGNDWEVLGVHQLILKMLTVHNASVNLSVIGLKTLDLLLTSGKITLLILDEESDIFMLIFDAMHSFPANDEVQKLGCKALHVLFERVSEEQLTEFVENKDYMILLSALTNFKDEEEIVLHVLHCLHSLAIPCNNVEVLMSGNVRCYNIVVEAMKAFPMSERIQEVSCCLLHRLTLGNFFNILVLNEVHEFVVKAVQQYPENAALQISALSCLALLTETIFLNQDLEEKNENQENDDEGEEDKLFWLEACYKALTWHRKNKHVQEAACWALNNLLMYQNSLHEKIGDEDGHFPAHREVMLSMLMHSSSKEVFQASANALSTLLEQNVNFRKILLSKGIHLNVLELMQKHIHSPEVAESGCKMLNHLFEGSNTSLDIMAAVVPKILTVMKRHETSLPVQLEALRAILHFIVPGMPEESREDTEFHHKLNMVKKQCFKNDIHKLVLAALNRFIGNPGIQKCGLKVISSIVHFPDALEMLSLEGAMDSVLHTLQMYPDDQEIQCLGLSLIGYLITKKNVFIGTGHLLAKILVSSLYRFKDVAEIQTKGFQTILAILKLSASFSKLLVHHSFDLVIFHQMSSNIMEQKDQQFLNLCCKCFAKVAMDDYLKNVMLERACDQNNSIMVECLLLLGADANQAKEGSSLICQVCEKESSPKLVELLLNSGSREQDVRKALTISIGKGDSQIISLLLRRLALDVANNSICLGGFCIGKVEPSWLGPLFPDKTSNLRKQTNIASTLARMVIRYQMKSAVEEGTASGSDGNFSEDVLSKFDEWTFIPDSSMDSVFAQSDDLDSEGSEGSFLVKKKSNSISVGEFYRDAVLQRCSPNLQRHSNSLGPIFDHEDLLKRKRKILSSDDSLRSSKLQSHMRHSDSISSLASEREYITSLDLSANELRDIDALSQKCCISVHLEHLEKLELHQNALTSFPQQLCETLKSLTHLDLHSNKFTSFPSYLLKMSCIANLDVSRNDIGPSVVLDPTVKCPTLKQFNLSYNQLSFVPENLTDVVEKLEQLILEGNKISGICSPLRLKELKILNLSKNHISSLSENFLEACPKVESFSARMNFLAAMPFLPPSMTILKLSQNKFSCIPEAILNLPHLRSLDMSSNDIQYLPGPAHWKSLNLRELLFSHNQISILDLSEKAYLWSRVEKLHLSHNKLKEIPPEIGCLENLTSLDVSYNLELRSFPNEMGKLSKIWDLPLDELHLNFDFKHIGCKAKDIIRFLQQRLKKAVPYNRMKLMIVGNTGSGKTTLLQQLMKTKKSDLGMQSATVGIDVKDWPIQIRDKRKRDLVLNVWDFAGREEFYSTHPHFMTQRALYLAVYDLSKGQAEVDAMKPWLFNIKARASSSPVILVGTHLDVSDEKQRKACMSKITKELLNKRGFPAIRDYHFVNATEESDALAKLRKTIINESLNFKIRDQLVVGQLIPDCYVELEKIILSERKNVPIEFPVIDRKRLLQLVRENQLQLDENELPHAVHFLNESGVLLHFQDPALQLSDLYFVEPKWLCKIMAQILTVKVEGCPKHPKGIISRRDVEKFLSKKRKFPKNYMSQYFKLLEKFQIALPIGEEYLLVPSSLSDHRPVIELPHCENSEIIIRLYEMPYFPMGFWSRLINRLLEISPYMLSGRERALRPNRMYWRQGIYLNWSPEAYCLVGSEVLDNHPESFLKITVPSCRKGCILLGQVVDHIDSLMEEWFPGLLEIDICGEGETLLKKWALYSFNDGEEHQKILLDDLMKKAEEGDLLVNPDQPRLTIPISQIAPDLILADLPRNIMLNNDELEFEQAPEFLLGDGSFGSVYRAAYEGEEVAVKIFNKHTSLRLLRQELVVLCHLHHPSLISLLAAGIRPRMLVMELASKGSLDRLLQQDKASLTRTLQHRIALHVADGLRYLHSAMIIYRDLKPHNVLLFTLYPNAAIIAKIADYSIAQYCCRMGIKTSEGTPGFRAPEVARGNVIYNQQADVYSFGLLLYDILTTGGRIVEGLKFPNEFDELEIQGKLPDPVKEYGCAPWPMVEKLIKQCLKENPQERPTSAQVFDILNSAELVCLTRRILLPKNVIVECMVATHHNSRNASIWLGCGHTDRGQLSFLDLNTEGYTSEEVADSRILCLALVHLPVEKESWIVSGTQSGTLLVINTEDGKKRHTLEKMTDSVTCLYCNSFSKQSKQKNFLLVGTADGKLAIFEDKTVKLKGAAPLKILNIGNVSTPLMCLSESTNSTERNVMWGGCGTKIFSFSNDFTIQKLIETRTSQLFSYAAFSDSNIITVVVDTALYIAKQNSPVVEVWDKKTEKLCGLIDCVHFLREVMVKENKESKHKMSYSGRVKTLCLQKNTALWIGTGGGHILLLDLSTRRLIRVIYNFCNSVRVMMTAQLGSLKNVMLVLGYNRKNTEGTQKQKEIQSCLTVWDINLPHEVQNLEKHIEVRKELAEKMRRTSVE
- Method: LRRK2 degradation assay, HiBit-tagged G2019S LRRK2 expressed from plasmid in HEK293 cells (Nano-Glo Dual-Luciferase)
- Type: cell-based
- Condition Notes: HiBit-tagged G2019S LRRK2 in HEK293 cells, 24 hours
Recorded Endpoint: DC50

Example compounds with recorded DC50:
| Compound | Target System | DC50 |
| --- | --- | --- |
| CC1(Oc2ccc3[nH]nc(-c4ccnc(N5CCN(C[C@H]6CC[C@H](CN7CCN(c8ccc9c(c8)C(=O)N(C8CCC(=O)NC8=O)C9=O)CC7)CC6)CC5)c4)c3c2)CC1 (some centres unmarked) | G2019S LRRK2 (Homo sapiens, UniProt Q5S007, G2019S) | 10 to 50 nM |
| CC1(Oc2ccc3n[nH]c(-c4cc(N5CCN(C(=O)C6CCN(CC7CCN(c8ccc9c(c8)C(=O)N(C8CCC(=O)NC8=O)C9=O)CC7)CC6)CC5)ncn4)c3c2)CC1 (centres unmarked) | G2019S LRRK2 (Homo sapiens, UniProt Q5S007, G2019S) | < 10 nM |
| CC1(Oc2ccc3[nH]nc(-c4cc(N5C[C@@H]6[C@@H](CN7CCN(CC8CCN(c9ccc%10c(c9)C(=O)N(C9CCC(=O)NC9=O)C%10=O)CC8)CC7)[C@@H]6C5)ncn4)c3c2)CC1 (some centres unmarked) | G2019S LRRK2 (Homo sapiens, UniProt Q5S007, G2019S) | < 10 nM |
| CC1(Oc2ccc3[nH]nc(-c4ccnc(N5CCC(O[C@H]6C[C@H](OC7CCN(c8ccc9c(c8)C(=O)N(C8CCC(=O)NC8=O)C9=O)CC7)C6)CC5)c4)c3c2)CC1 (some centres unmarked) | G2019S LRRK2 (Homo sapiens, UniProt Q5S007, G2019S) | 10 to 50 nM |
| CC1(Oc2ccc3[nH]nc(-c4cc(N5CCC(CN=S6(=O)CCN(CC7CCN(c8ccc9c(c8)C(=O)N(C8CCC(=O)NC8=O)C9=O)CC7)CC6)CC5)ncn4)c3c2)CC1 (centres unmarked) | G2019S LRRK2 (Homo sapiens, UniProt Q5S007, G2019S) | < 10 nM |
| CC1(Oc2ccc3[nH]nc(-c4cc(N5CCC(CN6CC[C@H](OC7CCN(c8ccc9c(c8)C(=O)N(C8CCC(=O)NC8=O)C9=O)CC7)C6)CC5)ncn4)c3c2)CC1 (some centres unmarked) | G2019S LRRK2 (Homo sapiens, UniProt Q5S007, G2019S) | 10 to 50 nM |
| CC1(Oc2ccc3[nH]nc(-c4ccnc(N5CCC(CC6CCN(C(=O)C7CCN(c8ccc9c(c8)C(=O)N(C8CCC(=O)NC8=O)C9=O)CC7)CC6)CC5)c4)c3c2)CC1 (centres unmarked) | G2019S LRRK2 (Homo sapiens, UniProt Q5S007, G2019S) | 10 to 50 nM |
| CC1(Oc2ccc3[nH]nc(-c4cc(N5CCC(O[C@H]6CCN(CC7CCN(c8ccc9c(c8)C(=O)N(C8CCC(=O)NC8=O)C9=O)CC7)C6)CC5)ncn4)c3c2)CC1 (some centres unmarked) | G2019S LRRK2 (Homo sapiens, UniProt Q5S007, G2019S) | < 10 nM |

Please report DC50 for every entry that follows.
1. CC1(Oc2ccc3[nH]nc(-c4ccnc(N5CCC(C(=O)N6CCC(CN7CCN(c8ccc9c(c8)C(=O)N(C8CCC(=O)NC8=O)C9=O)CC7)CC6)CC5)c4)c3c2)CC1 (centres unmarked)
2. CC1(Oc2ccc3n[nH]c(-c4cc(N5CCC(CN6CCN(CC7(F)CN(c8ccc9c(c8)C(=O)N(C8CCC(=O)NC8=O)C9=O)C7)CC6)CC5)ncn4)c3c2)CC1 (centres unmarked)
3. CC1(Oc2ccc3[nH]nc(-c4ccnc(N5CCN(CC6CCN(C(=O)C7CCN(c8ccc9c(c8)C(=O)N(C8CCC(=O)NC8=O)C9=O)CC7)CC6)CC5)c4)c3c2)CC1 (centres unmarked)
4. CC1(Oc2ccc3n[nH]c(-c4cc(N5CCC(CN6CCN(CC7CCN(c8ccc9c(c8)C(=O)N(C8CCC(=O)NC8=O)C9=O)CC7)CC6)CC5)ncn4)c3c2)CC1 (centres unmarked)

< 10 nM
< 10 nM
< 10 nM
< 10 nM

Please report DC50 for every entry that follows.
1. C[C@H]1CN(c2cc(-c3n[nH]c4ccc(OC5(C)CC5)cc34)ncn2)CCN1CC1CN(CC2CCN(c3ccc4c(c3)C(=O)N(C3CCC(=O)NC3=O)C4=O)CC2)C1 (some centres unmarked)
2. CC1(Oc2ccc3[nH]nc(-c4ccnc(N5CCC(C(=O)N6CCC(CC7CCN(c8ccc9c(c8)C(=O)N(C8CCC(=O)NC8=O)C9=O)CC7)CC6)CC5)c4)c3c2)CC1 (centres unmarked)
3. C[C@H]1CN(c2cc(-c3n[nH]c4ccc(OC5(C)CC5)cc34)ncn2)CCN1CCC1(F)CCN(CC2CCN(c3ccc4c(c3)C(=O)N(C3CCC(=O)NC3=O)C4=O)CC2)CC1 (some centres unmarked)
4. CC1(Oc2ccc3[nH]nc(-c4cc(N5CCN(CC6(F)CCN(CC7CCN(c8ccc9c(c8)CN(C8CCC(=O)NC8=O)C9=O)CC7)CC6)CC5)ncn4)c3c2)CC1 (centres unmarked)
5. C[C@H]1CN(c2cc(-c3n[nH]c4ccc(OC5(C)CC5)cc34)ncn2)CCN1CC1CCN(CCCNc2cccc3c2CN(C2CCC(=O)NC2=O)C3=O)CC1 (some centres unmarked)
6. CC1(Oc2ccc3[nH]nc(-c4cc(N5CCC(CN6CC[C@@H](CN7CCN(c8ccc9c(c8)C(=O)N(C8CCC(=O)NC8=O)C9=O)CC7)C6)CC5)ncn4)c3c2)CC1 (some centres unmarked)
7. CC1(Oc2ccc3[nH]nc(-c4cc(N5CCN(CC6CCN(C(=O)C7CCN(c8ccc9c(c8)C(=O)N(C8CCC(=O)NC8=O)C9=O)CC7)CC6)CC5)ncn4)c3c2)CC1 (centres unmarked)
8. CC1(Oc2ccc3n[nH]c(-c4cc(N5CC(OC6CCN(CC7CCN(c8ccc9c(c8)C(=O)N(C8CCC(=O)NC8=O)C9=O)CC7)CC6)C5)ncn4)c3c2)CC1 (centres unmarked)

1. < 10 nM
2. 10 to 50 nM
3. < 10 nM
4. < 10 nM
5. 10 to 50 nM
6. < 10 nM
7. < 10 nM
8. < 10 nM
